B1: PLAGL1 (parent)
chain: TKEKKHQCDHCERCFYTRKDVRRH

Variants of: B1
Assay: protein stability index of a GFP-peptide fusion (GPS, HEK-293T) (PSI 1-6); higher = more stable;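 also: lentivirally expressed fusions sorted by FACS into six bins by GFP to DsRed ratio, PSI derived from sequencing read proportions per bin multiplied by bin number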
Settings: c terminus: a fixed tail appended
Could you label it label 1 if measured protein stability index is 3 or higher, and label 0 otherwise?

# variantName, assignedLabel
measured = [
    ("T17K", "label 1"),
    ("H6V", "label 0"),
    ("C11V", "label 1"),
    ("T17P", "label 1"),
    ("H10N", "label 1"),
    ("C11Y", "label 1"),
    ("K19Q", "label 1"),
    ("H6T", "label 0"),
    ("Q7L", "label 0"),
    ("F15E", "label 1"),
    ("R23D", "label 1"),
    ("E3L", "label 1"),
    ("T17F", "label 1"),
    ("R13P", "label 0"),
    ("E12W", "label 0"),
    ("H10A", "label 1"),
    ("C8I", "label 1"),
    ("R18Y", "label 1"),
    ("Q7N", "label 1"),
]

The reported measurements were obtained from the supplement of paper PMC10567573.
